Molecular target: PD-1 expressed on cells (human)
Sequence (chain, as listed by the source): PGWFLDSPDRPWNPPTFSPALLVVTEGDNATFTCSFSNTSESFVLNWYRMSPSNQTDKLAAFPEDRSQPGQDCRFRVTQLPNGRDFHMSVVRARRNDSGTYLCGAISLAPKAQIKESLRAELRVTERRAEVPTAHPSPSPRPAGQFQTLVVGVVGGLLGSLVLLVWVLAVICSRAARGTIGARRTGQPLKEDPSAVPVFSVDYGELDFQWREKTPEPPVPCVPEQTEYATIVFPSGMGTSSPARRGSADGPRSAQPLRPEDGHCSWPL
Assay: flow cytometry, Jurkat/PD-1 cells
MEASUREMENT_NAME: Fold increase over wildtype PD-L2 IgV-Fc
Note: the reply should be a number with no unit written.

Entry under test: variant PD-L2 IgV-Fc I13V, H15Q, T47A, Q82R, V89D (SEQ ID NO 725) (Fc fusion) LFTVTVPKELYIVEQGSNVTLECDFDTGSHVNLGAITASLQKVENDTSPHRERATLLEEQLPLGKASFHIPQVQVRDEGQYRCIIIYGDAWDYKYLTLKVKA . Its Fold increase over wildtype PD-L2 IgV-Fc was 6.2

Further cases:
Entry under test: variant PD-L2 IgV-Fc E44D (Fc fusion) LFTVTVPKELYIIEHGSNVTLECNFDTGSHVNLGAITASLQKVDNDTSPHRERATLLEEQLPLGKASFHIPQVQVRDEGQYQCIIIYGVAWDYKYLTLKVKA . Its Fold increase over wildtype PD-L2 IgV-Fc was 0.3

Entry under test: variant PD-L2 IgV-Fc H15Q, S67L, R76G, I85F (Fc fusion) LFTVTVPKELYIIEQGSNVTLECNFDTGSHVNLGAITASLQKVENDTSPHRERATLLEEQLPLGKALFHIPQVQVGDEGQYQCIFIYGVAWDYKYLTLKVKA . Its Fold increase over wildtype PD-L2 IgV-Fc was 0.29

Entry under test: variant PD-L2 IgV-Fc H15Q, K65R (Fc fusion) LFTVTVPKELYIIEQGSNVTLECNFDTGSHVNLGAITASLQKVENDTSPHRERATLLEEQLPLGRASFHIPQVQVRDEGQYQCIIIYGVAWDYKYLTLKVKA . Its Fold increase over wildtype PD-L2 IgV-Fc was 1.37

Reference source: patent US20230381229A1
